These data points were gathered from patent US10221197B2.

Molecular target: PI3Kγ (Homo sapiens (Human), UniProt P48736)
Sequence (P48736 whole entry, canonical isoform): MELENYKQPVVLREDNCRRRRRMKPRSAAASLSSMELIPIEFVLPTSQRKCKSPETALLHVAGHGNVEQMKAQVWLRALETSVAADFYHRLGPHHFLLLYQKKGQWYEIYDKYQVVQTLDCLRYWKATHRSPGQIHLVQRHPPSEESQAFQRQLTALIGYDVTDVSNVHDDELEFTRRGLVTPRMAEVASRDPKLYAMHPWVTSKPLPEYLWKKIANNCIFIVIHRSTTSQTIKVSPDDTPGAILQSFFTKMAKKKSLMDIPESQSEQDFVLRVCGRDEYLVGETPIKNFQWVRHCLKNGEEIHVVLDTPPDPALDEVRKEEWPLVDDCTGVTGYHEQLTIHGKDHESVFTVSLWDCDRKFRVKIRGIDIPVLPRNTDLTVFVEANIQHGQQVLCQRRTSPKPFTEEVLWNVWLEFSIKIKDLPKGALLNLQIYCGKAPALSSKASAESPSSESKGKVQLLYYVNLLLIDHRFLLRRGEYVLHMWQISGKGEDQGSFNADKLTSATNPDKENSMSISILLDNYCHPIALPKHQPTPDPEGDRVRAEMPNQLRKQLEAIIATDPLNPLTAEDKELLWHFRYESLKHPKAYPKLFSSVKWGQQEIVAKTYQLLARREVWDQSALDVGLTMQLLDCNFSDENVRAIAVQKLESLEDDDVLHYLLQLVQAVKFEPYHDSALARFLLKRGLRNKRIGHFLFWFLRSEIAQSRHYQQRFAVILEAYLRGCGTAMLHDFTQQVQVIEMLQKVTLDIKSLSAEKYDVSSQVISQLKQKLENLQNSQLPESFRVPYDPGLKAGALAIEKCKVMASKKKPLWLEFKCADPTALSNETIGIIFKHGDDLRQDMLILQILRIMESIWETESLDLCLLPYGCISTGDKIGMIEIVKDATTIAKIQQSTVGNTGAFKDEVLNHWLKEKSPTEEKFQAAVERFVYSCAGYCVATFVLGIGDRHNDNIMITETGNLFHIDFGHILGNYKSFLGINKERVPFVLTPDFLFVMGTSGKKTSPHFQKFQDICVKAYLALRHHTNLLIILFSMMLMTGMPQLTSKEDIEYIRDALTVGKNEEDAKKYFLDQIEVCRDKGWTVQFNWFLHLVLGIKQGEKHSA
Sequence (Q8WYR1 whole entry partner, canonical isoform): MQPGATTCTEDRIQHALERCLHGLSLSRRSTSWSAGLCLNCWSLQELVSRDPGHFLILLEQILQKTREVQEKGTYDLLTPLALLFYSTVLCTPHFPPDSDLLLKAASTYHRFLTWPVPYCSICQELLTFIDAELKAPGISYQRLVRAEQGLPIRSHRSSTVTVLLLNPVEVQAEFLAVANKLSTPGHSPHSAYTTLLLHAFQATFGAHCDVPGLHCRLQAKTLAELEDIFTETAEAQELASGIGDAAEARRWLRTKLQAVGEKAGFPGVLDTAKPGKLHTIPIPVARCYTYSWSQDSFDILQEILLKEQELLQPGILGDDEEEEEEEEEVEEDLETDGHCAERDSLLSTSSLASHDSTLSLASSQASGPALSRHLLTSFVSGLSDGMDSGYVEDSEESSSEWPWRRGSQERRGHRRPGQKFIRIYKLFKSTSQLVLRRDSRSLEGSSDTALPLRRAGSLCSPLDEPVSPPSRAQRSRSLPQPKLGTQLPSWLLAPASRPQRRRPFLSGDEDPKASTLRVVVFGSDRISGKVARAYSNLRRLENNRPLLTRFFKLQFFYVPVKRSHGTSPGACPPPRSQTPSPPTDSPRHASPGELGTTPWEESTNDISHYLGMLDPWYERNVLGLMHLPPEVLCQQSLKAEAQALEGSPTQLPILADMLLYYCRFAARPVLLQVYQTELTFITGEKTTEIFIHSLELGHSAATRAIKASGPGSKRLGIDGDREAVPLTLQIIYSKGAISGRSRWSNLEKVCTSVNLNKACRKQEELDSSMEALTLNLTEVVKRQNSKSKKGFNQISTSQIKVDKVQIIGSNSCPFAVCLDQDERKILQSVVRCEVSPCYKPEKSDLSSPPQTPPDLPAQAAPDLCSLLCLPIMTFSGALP
Experiment: TR-FRET enzymatic assay of PI3K isoforms (PI3Kγ)
Type: biochemical
Conditions: TR-FRET, 2×Km ATP, 2 μM PIP2, PI3Kγ at 2 nM, incubated for 30 minutes at 25° C.; read-out: γ IC50
measured_attribute: pIC50
Numbers only, as −log10 of the molar value.

N#Cc1c(N)nc(N)nc1N[C@H](c1nc2c(Cl)ccc(Cl)c2c(=O)n1-c1cccc(C(N)=O)c1)C1CC1; 6.64

Consider now this further compound.
Identify pIC50 associated with the compound C[C@H](Nc1ncnc(N)c1C#N)c1nc2cccc(Cl)c2c(=O)n1-c1cccc(NC(=O)Nc2nnn[nH]2)c1
5.42
